Taken from ChEMBL document CHEMBL1143269.

Molecular target: Cyclin-dependent kinase 2 (Homo sapiens)
Test: Inhibition of human CDK2
measure: pIC50
One number for each entry, as −log10 of the molar value.

Previously resolved entries follow.
smiles repr	pIC50
O=C(NC1CC1)c1n[nH]c2cc(-c3ccc(O)cc3)c(Br)cc12	8.30
CC(=O)Nc1ccc(-c2ccc3c(-c4nc5c(N6CCN(C)CC6)cccc5[nH]4)n[nH]c3c2)cc1	5.00
CN1CCN(c2cccc3[nH]c(-c4n[nH]c5cc(-c6ccc(C(=O)O)cc6)ccc45)nc23)CC1	5.00

Here is another compound to look at.
Query: Any idea what pIC50 was measured for COc1cc(F)ccc1-c1ccc2c(-c3nc4c(N5CCN(C)CC5)cccc4[nH]3)n[nH]c2c1 ?
Result: 5.00
